- measurement target: GDP-bound KRAS wild-type protein (Homo sapiens, UniProt P01116)
- Sequence (P01116 whole entry): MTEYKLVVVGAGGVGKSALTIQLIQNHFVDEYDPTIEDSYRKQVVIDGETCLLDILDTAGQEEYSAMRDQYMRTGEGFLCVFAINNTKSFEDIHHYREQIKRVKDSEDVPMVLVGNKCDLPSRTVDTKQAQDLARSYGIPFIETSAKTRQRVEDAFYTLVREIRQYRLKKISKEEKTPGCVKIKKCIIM
- test protocol: Binding to KRAS by surface plasmon resonance (SPR), Single Cycle Kinetics
- assay setup: SPR, Single Cycle Kinetics, 1:1 binding model; GDP-bound KRAS wild-type protein; read-out: KRAS KD
The following compounds are listed with their measured pKd values.
As a rule, pKd stands for the negative log10 of the concentration, concentration in M.

Before answering, review these 3 worked examples.
| compound | pKd |
| --- | --- |
| CCO[C@@H]1C[C@H]2C(=O)NC3(CCC3)C(=O)N(C)[C@@H](C3CCCC3)C(=O)N(C)[C@H](C(=O)N(C)C)CC(=O)N(C)[C@@H](CC3CC3)C(=O)N[C@@H]([C@@H](C)CC)C(=O)N(C)CC(=O)N(C)[C@H]3C/C=C\CCN(C3=O)[C@@H](Cc3ccc(C(F)(F)F)cc3)C(=O)N(C)CC(=O)N[C@@H](CCc3ccc(Cl)c(Cl)c3)C(=O)N2C1 | 9.70 |
| CCO[C@@H]1C[C@H]2C(=O)NC3(CCC3)C(=O)N(C)[C@@H](C3CCCC3)C(=O)N(C)[C@H](C(=O)N(C)C)CC(=O)N(C)[C@@H](CC3CC3)C(=O)N[C@@H]([C@@H](C)CC)C(=O)N(C)CC(=O)N(C)[C@H]3C/C=C\CCN(C3=O)[C@@H](Cc3ccc(C(F)(F)F)cc3)C(=O)N(C)CC(=O)N[C@@H](CCc3ccc4sccc4c3)C(=O)N2C1 | 9.43 |
| CCC[C@H]1C(=O)N[C@@H]([C@@H](C)CC)C(=O)N(C)CC(=O)N(C)[C@H]2C/C=C\CCN(C2=O)[C@@H](Cc2ccc(C(F)(F)F)cc2)C(=O)N(C)CC(=O)N[C@@H](CCc2cc(F)c(C(F)(F)F)c(F)c2)C(=O)N2C[C@H](OCC)C[C@H]2C(=O)NC2(CCC2)C(=O)N(C)[C@@H](C2CCCC2)C(=O)N(C)[C@H](C(=O)N2CCCCC2)CC(=O)N1C | 9.54 |

Dear colleague, I am looking for the recorded pKd of the following compound: CCO[C@@H]1C[C@H]2C(=O)NC3(CCCC3)C(=O)N(C)[C@@H](C(CC)CC)C(=O)N(C)[C@H](C(=O)N3CCCC3)CC(=O)N(C)[C@@H](C)C(=O)N[C@@H]([C@@H](C)CC)C(=O)N(C)CC(=O)N(C)[C@H]3C/C=C\CCN(C3=O)[C@@H](CC3CCC(F)(F)CC3)C(=O)N(C)CC(=O)N[C@@H](CCc3cc(F)c(C(F)(F)F)c(F)c3)C(=O)N2C1
9.21

Check CCO[C@@H]1C[C@H]2C(=O)NC3(CCC3)C(=O)N(C)[C@@H](C3CCCC3)C(=O)N(C)[C@H](C(=O)N(C)C)CC(=O)N(C)[C@@H](CC3CCCC3)C(=O)N[C@@H]([C@@H](C)CC)C(=O)N(C)CC(=O)N(C)[C@H]3C/C=C\CCN(C3=O)[C@@H](Cc3ccc(C)cc3)C(=O)N(C)CC(=O)N[C@@H](CCc3ccc(Cl)c(Cl)c3)C(=O)N2C1 too.
9.47

What do you have for CCC[C@H]1C(=O)N[C@@H]([C@@H](C)CC)C(=O)N(C)CC(=O)N(C)[C@H]2C/C=C\CCN(C2=O)[C@@H](Cc2ccc(C(F)(F)F)cc2)C(=O)N(C)CC(=O)N[C@@H](CCc2ccc(C(F)(F)F)c(OC)c2)C(=O)N2C[C@H](OCC)C[C@H]2C(=O)NC2(CCC2)C(=O)N(C)[C@@H](C2CCCC2)C(=O)N(C)[C@H](C(=O)N(C)C)CC(=O)N1C ?
10.21

Source: patent US20240158446A1
